- Method Description: Aggregates forming ability by dynamic light scattering(DLS).
Recorded DLS Concentration for the following compounds
Measure Name: DLS Concentration (µM)

Compound	Readout Unit	Number
O=S(=O)(O)c1cccc2cccc(Nc3ccccc3)c12	µM	1000
O=C1C2C(C(=O)N1Nc1ccc([N+](=O)[O-])cc1[N+](=O)[O-])[C@@]1(Cl)C(Cl)=C(Cl)[C@]2(Cl)C1(Cl)Cl (stereo not given in full)	µM	15
Oc1ccc(/N=N/c2ccc(Br)cc2)cc1	µM	10
Oc1ccc(-c2csc(Nc3ccc(F)cc3F)n2)cc1O	µM	300
Cc1cc(Cl)cc2c1C(=O)/C(=C1/Sc3cc(Cl)cc(C)c3C1=O)S2	µM	20

---

Recorded DLS Concentration for the following compounds
- Method Description: Aggregates forming ability by dynamic light scattering(DLS).
Measure Name: DLS Concentration (µM)

Compound	Number
CC(C)CC(Oc1ccc(OC(=O)c2cc(-c3ccc(Cl)cc3)nc(-c3ccc(Cl)cc3)c2)cc1)C(=O)O (stereo not given)	50
COc1ccc2c(c1)CC[C@@H]1[C@@H]2CC[C@]2(C)[C@@H](NCCNc3ccc([N+](=O)[O-])cn3)CC[C@@H]12	40
CCCCCCC(Oc1ccc(S(=O)(=O)c2ccc(OCc3ccccc3)cc2)cc1)C(=O)O (stereo not given)	500
O=C1Nc2ccccc2/C1=C/c1ccc(-c2cccs2)s1	20
O=C(N/N=C/c1ccccc1O)C(=O)N/N=C/c1ccccc1O	10

---

- Method Description: Aggregates forming ability by dynamic light scattering(DLS).
Recorded DLS Concentration for the following compounds
Measure Name: DLS Concentration (µM)

Compound	Measure Name	Readout Unit	Number
O=C(O)c1cc(-c2ccc(Cl)cc2)nc(-c2ccc(Sc3ccc(Cl)cc3)cc2)c1	DLS Concentration	µM	50
C(=C1c2ccccc2-c2ccccc21)C1CCCNC1 (stereo not given)	DLS Concentration	µM	100
O=C1C(I)=CC(=C(c2cc(I)c(O)c(I)c2)c2ccccc2C(=O)O)C=C1I	DLS Concentration	µM	10
O=C(O)COc1ccc(/N=N/c2ccc3cc(Br)ccc3c2O)cc1	DLS Concentration	µM	20
O=C(Nc1nnc(Sc2nc3cc(Cl)ccc3s2)s1)c1cccs1	DLS Concentration	µM	15
Oc1oc(/C=N/c2ccc(Oc3ccccc3)cc2)c2ccccc12	DLS Concentration	µM	100
CC(C)(C)c1ccc(-c2cc(C(=O)O)cc(-c3ccc(Cl)c(Cl)c3)n2)cc1	DLS Concentration	µM	50
COC1CC[C@@]2(C)[C@@H](CC[C@@H]3[C@@H]2[C@@H](O)C[C@]2(C)[C@@H](NCCN)CC[C@@H]32)C1 (stereo not given in full)	DLS Concentration	µM	100
COc1ccc2c(c1)CC[C@@H]1[C@@H]2CC[C@]2(C)[C@@H](NCCCc3ccccc3)CC[C@@H]12	DLS Concentration	µM	100
OB(O)c1cc2ccccc2s1	DLS Concentration	µM	100

---

Recorded DLS Concentration for the following molecules
- Method Description: Aggregates forming ability by dynamic light scattering(DLS).

Smiles Structure	DLS Concentration, µM
CC(C)c1ccc(/C=C2/C(=O)Nc3ccccc32)cc1	10
CCCCc1ccc(-c2cc(C(=O)O)cc(-c3ccc(Cl)cc3)n2)cc1	50
Oc1ccc(/N=N/c2cccc(Br)c2)cc1	500
Cc1ccc(-c2cc(C(=O)O)cc(-c3ccc4ccccc4c3)n2)cc1	500
CC(C)(C)c1cc(/C=C2/C(=O)Nc3ncccc32)cc(C(C)(C)C)c1O	10
O=C(O)c1cc(-c2ccc(Cl)cc2)nc(-c2ccc(-c3ccccc3)cc2)c1	80

---

- Method Description: Aggregates forming ability by dynamic light scattering(DLS).
Measure Name: DLS Concentration (µM)

Smiles Structure	Readout Unit	Number
O=C1OC2(c3cc(I)c(O)c(I)c3Oc3c2cc(I)c(O)c3I)c2c(Cl)c(Cl)c(Cl)c(Cl)c21	µM	500
O=C1Nc2ccccc2/C1=C\c1ccc2c(c1O)CCCC2	µM	40
CN(C)c1ccc(/C=C2/C(=O)Nc3ccccc32)cc1	µM	30
Nc1c(/N=N/c2ccc(-c3ccc(/N=N/c4cc(S(=O)(=O)O)c5ccccc5c4N)cc3)cc2)cc(S(=O)(=O)O)c2ccccc12	µM	750
